- Test system: Bursaphelenchus xylophilus
- Assay protocol: Nematicidal activity against Bursaphelenchus xylophilus assessed as mortality at 200 mg/L after 48 hr relative to control
- Format: functional
Label fulfilled when Activity is strictly below 20%; otherwise label not fulfilled.

Report whether reported Activity is lower than 20% (strictly) for "COc1ccc(/C(=C/C(=O)NCCc2ccccc2)c2ccnc(Cl)c2)cc1"
not fulfilled

Report whether reported Activity is lower than 20% (strictly) for "Cc1ccc(/C(=C/C(=O)NCCc2ccccc2)c2ccnc(Cl)c2)c(C)c1"
not fulfilled

Report whether reported Activity is lower than 20% (strictly) for "Cc1ccc(/C(=C/C(=O)NCCc2ccccc2)c2ccncc2)cc1C"
not fulfilled

Report whether reported Activity is lower than 20% (strictly) for "CCc1ccc(/C(=C/C(=O)NCCc2ccccc2)c2ccncc2)cc1"
fulfilled

Report whether reported Activity is lower than 20% (strictly) for "Cc1ccc(/C(=C/C(=O)NCCc2ccc(O)cc2)c2ccnc(Cl)c2)cc1C"
fulfilled

* * *

- System: Colletotrichum lindemuthianum
- Assay protocol: Antifungal activity against Colletotrichum lindemuthianum assessed as inhibition of mycelium growth at 50 ug/ml relative to control
- Assay type: functional
Exercise: for every item that follows, state its recorded inhibition at 50 µg/mL.
Respond with the bare value in %.

Reported inhibition at 50 µg/mL ( "Cc1ccc(/C(=C/C(=O)NCCc2ccccc2)c2ccncc2)cc1" ) = 32.8

Reported inhibition at 50 µg/mL ( "CCc1ccc(/C(=C/C(=O)NCCc2ccccc2)c2ccnc(Cl)c2)cc1" ) = 34.3

Reported inhibition at 50 µg/mL ( "COc1ccc(CCNC(=O)/C=C(\c2ccnc(Cl)c2)c2ccc(C)cc2C)cc1OC" ) = 42.5

Reported inhibition at 50 µg/mL ( "CC(C)(C)c1ccc(/C(=C/C(=O)NCCc2ccc(O)cc2)c2ccnc(Cl)c2)cc1" ) = 39.5

Reported inhibition at 50 µg/mL ( "COC(=O)Nc1nc2ccccc2[nH]1" ) = 82.1

Reported inhibition at 50 µg/mL ( "Cc1ccc(/C(=C/C(=O)NCCc2ccccc2)c2ccnc(Cl)c2)cc1" ) = 59.7

Reported inhibition at 50 µg/mL ( "COc1ccc(CCNC(=O)/C=C(\c2ccnc(Cl)c2)c2ccc(C)c(C)c2)cc1OC" ) = 23.9

Reported inhibition at 50 µg/mL ( "Cc1ccc(/C(=C/C(=O)NCCc2ccc(O)cc2)c2ccnc(Cl)c2)c(C)c1" ) = 21.6

Reported inhibition at 50 µg/mL ( "CCc1ccc(/C(=C/C(=O)NCCc2ccccc2)c2ccncc2)cc1" ) = 37.3

Reported inhibition at 50 µg/mL ( "COc1ccc(/C(=C/C(=O)NCCc2ccccc2)c2ccnc(Cl)c2)cc1" ) = 43.3

* * *

Exercise: for every item that follows, state its recorded inhibition at 50 µg/mL.
- Test system: Phytophthora nicotianae
- Assay protocol: Antifungal activity against Phytophthora parasitica assessed as inhibition of mycelium growth at 50 ug/ml relative to control
- Format: functional
Respond with the bare value in %.

Reported inhibition at 50 µg/mL ( "COc1ccc(CCNC(=O)/C=C(\c2ccnc(Cl)c2)c2ccc(C)c(C)c2)cc1OC" ) = 14.2

Reported inhibition at 50 µg/mL ( "CCc1ccc(/C(=C/C(=O)NCCc2ccccc2)c2ccnc(Cl)c2)cc1" ) = 26.8

Reported inhibition at 50 µg/mL ( "Cc1ccc(/C(=C/C(=O)NCCc2ccc(O)cc2)c2ccnc(Cl)c2)cc1C" ) = -18.5

Reported inhibition at 50 µg/mL ( "COc1ccc(CCNC(=O)/C=C(\c2ccnc(Cl)c2)c2ccc(C)cc2C)cc1OC" ) = 22.6

Reported inhibition at 50 µg/mL ( "Cc1ccc(/C(=C/C(=O)NCCc2ccc(O)cc2)c2ccncc2)cc1C" ) = 14.5

Reported inhibition at 50 µg/mL ( "COc1ccc(CCNC(=O)/C=C(/c2ccc(C)cc2)c2ccnc(Cl)c2)cc1OC" ) = 0

Reported inhibition at 50 µg/mL ( "COc1ccc(CCNC(=O)/C=C(\c2ccncc2)c2ccc(C)c(C)c2)cc1OC" ) = -14.5

Reported inhibition at 50 µg/mL ( "N#Cc1c(Cl)c(Cl)c(Cl)c(C#N)c1Cl" ) = 63.7

Reported inhibition at 50 µg/mL ( "CC(C)(C)c1ccc(/C(=C/C(=O)NCCc2ccc(O)cc2)c2ccnc(Cl)c2)cc1" ) = -13.7

Reported inhibition at 50 µg/mL ( "COc1ccc(CCNC(=O)/C=C(/c2ccc(C(C)(C)C)cc2)c2ccnc(Cl)c2)cc1OC" ) = -8.06

Reported inhibition at 50 µg/mL ( "Cc1ccc(/C(=C/C(=O)NCCc2ccccc2)c2ccncc2)cc1C" ) = -9.68

Reported inhibition at 50 µg/mL ( "Cc1ccc(/C(=C/C(=O)NCCc2ccccc2)c2ccnc(Cl)c2)c(C)c1" ) = 11.3

Reported inhibition at 50 µg/mL ( "COC(=O)Nc1nc2ccccc2[nH]1" ) = 14.5

Reported inhibition at 50 µg/mL ( "Cc1ccc(/C(=C/C(=O)NCCc2ccccc2)c2ccnc(Cl)c2)cc1C" ) = 1.61

Reported inhibition at 50 µg/mL ( "COc1ccc(/C(=C/C(=O)NCCc2ccccc2)c2ccnc(Cl)c2)cc1" ) = -2.42

Reported inhibition at 50 µg/mL ( "Cc1ccc(/C(=C/C(=O)NCCc2ccc(O)cc2)c2ccncc2)cc1" ) = -17.7

Reported inhibition at 50 µg/mL ( "Cc1ccc(/C(=C/C(=O)NCCc2ccc(O)cc2)c2ccnc(Cl)c2)cc1" ) = -18.5

Reported inhibition at 50 µg/mL ( "CO/C=C(/C(=O)OC)c1ccccc1Oc1cc(Oc2ccccc2C#N)ncn1" ) = 37.9

Reported inhibition at 50 µg/mL ( "Cc1ccc(/C(=C/C(=O)NCCc2ccccc2)c2ccncc2)cc1" ) = -17.7

Reported inhibition at 50 µg/mL ( "CCc1ccc(/C(=C/C(=O)NCCc2ccc(O)cc2)c2ccnc(Cl)c2)cc1" ) = 28.2

Reported inhibition at 50 µg/mL ( "Cc1ccc(/C(=C/C(=O)NCCc2ccccc2)c2ccnc(Cl)c2)cc1" ) = 24.4

Reported inhibition at 50 µg/mL ( "Cc1ccc(/C(=C/C(=O)NCCc2ccc(O)cc2)c2ccnc(Cl)c2)c(C)c1" ) = -25

Reported inhibition at 50 µg/mL ( "CCc1ccc(/C(=C/C(=O)NCCc2ccccc2)c2ccncc2)cc1" ) = 5.65

* * *

- System: Cytospora mali
- Assay protocol: Antifungal activity against Valsa mali assessed as inhibition of mycelium growth at 50 ug/ml relative to control
- Assay type: functional
Classification field: enter condition met for inhibition at 50 µg/mL values not below 30%, condition not met for values below it.

Could you please find out whether "COc1ccc(CCNC(=O)/C=C(\c2ccnc(Cl)c2)c2ccc(C)cc2C)cc1OC" has inhibition at 50 µg/mL that meets 30% or exceeds it?
condition not met

Could you please find out whether "CO/C=C(/C(=O)OC)c1ccccc1Oc1cc(Oc2ccccc2C#N)ncn1" has inhibition at 50 µg/mL that meets 30% or exceeds it?
condition met

Could you please find out whether "Cc1ccc(/C(=C/C(=O)NCCc2ccc(O)cc2)c2ccnc(Cl)c2)cc1" has inhibition at 50 µg/mL that meets 30% or exceeds it?
condition not met

Could you please find out whether "Cc1ccc(/C(=C/C(=O)NCCc2ccccc2)c2ccncc2)cc1C" has inhibition at 50 µg/mL that meets 30% or exceeds it?
condition not met

Could you please find out whether "N#Cc1c(Cl)c(Cl)c(Cl)c(C#N)c1Cl" has inhibition at 50 µg/mL that meets 30% or exceeds it?
condition met

Could you please find out whether "COc1ccc(CCNC(=O)/C=C(/c2ccc(C)cc2)c2ccnc(Cl)c2)cc1OC" has inhibition at 50 µg/mL that meets 30% or exceeds it?
condition met

Could you please find out whether "Cc1ccc(/C(=C/C(=O)NCCc2ccccc2)c2ccnc(Cl)c2)cc1C" has inhibition at 50 µg/mL that meets 30% or exceeds it?
condition met

Could you please find out whether "Cc1ccc(/C(=C/C(=O)NCCc2ccc(O)cc2)c2ccncc2)cc1" has inhibition at 50 µg/mL that meets 30% or exceeds it?
condition not met

Could you please find out whether "CCc1ccc(/C(=C/C(=O)NCCc2ccccc2)c2ccnc(Cl)c2)cc1" has inhibition at 50 µg/mL that meets 30% or exceeds it?
condition not met

* * *

- Tested on: Cytospora mali
- Assay protocol: Antifungal activity against Valsa mali assessed as inhibition of mycelium growth at 50 ug/ml relative to control
- Type: functional
Exercise: for every item that follows, state its recorded inhibition at 50 µg/mL.
Respond with the bare value in %.

Reported inhibition at 50 µg/mL ( "Cc1ccc(/C(=C/C(=O)NCCc2ccc(O)cc2)c2ccnc(Cl)c2)c(C)c1" ) = 26

Reported inhibition at 50 µg/mL ( "COc1ccc(/C(=C/C(=O)NCCc2ccccc2)c2ccnc(Cl)c2)cc1" ) = -6.3

Reported inhibition at 50 µg/mL ( "Cc1ccc(/C(=C/C(=O)NCCc2ccc(O)cc2)c2ccncc2)cc1C" ) = -2.3

Reported inhibition at 50 µg/mL ( "Cc1ccc(/C(=C/C(=O)NCCc2ccccc2)c2ccnc(Cl)c2)c(C)c1" ) = 31

Reported inhibition at 50 µg/mL ( "CC(C)(C)c1ccc(/C(=C/C(=O)NCCc2ccc(O)cc2)c2ccnc(Cl)c2)cc1" ) = -7.8

Reported inhibition at 50 µg/mL ( "COc1ccc(CCNC(=O)/C=C(\c2ccncc2)c2ccc(C)c(C)c2)cc1OC" ) = 68

Reported inhibition at 50 µg/mL ( "COc1ccc(CCNC(=O)/C=C(/c2ccc(C(C)(C)C)cc2)c2ccnc(Cl)c2)cc1OC" ) = 18

Reported inhibition at 50 µg/mL ( "COC(=O)Nc1nc2ccccc2[nH]1" ) = 100

Reported inhibition at 50 µg/mL ( "CCc1ccc(/C(=C/C(=O)NCCc2ccc(O)cc2)c2ccnc(Cl)c2)cc1" ) = 24

Reported inhibition at 50 µg/mL ( "COc1ccc(CCNC(=O)/C=C(\c2ccnc(Cl)c2)c2ccc(C)c(C)c2)cc1OC" ) = 36

Reported inhibition at 50 µg/mL ( "Cc1ccc(/C(=C/C(=O)NCCc2ccccc2)c2ccnc(Cl)c2)cc1" ) = 48

Reported inhibition at 50 µg/mL ( "Cc1ccc(/C(=C/C(=O)NCCc2ccc(O)cc2)c2ccnc(Cl)c2)cc1C" ) = -6.3

Reported inhibition at 50 µg/mL ( "Cc1ccc(/C(=C/C(=O)NCCc2ccccc2)c2ccncc2)cc1" ) = 36
